Target: mALDH1a3 (Mus musculus, UniProt Q9JHW9)
Sequence (Q9JHW9 whole entry): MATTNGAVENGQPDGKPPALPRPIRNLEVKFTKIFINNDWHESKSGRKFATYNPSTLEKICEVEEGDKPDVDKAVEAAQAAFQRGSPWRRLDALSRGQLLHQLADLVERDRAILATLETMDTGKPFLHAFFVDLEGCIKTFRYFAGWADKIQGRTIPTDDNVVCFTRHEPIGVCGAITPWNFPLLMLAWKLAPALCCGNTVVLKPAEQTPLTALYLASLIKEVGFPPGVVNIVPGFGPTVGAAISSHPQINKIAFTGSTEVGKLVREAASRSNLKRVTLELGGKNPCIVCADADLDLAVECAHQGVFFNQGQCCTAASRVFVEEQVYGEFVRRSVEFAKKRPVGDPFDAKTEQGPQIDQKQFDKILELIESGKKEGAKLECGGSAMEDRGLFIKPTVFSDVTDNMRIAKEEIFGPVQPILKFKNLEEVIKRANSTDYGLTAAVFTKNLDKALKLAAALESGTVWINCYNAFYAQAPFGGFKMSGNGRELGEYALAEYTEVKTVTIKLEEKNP
Assay: Aldh1a3 enzyme inhibition assay, recombinant mALDH1a3
Details: resorufin fluorescence, 20° C.
Excerpt: Recombinant enzyme and inhibitor added immediately before assay. Reaction rate measured by resorufin fluorescence.
Each entry below carries its recorded IC50.

molecule	IC50
Cn1ccc2nc(Nc3ccc4c(c3)CC(C)(C)C(=O)N4)ccc21	> 5 µM

Consider the record given below.
[Q] State its IC50 for this molecule: CC1(C)Cc2cc(Nc3nc(=O)c4ccccc4[nH]3)ccc2NC1=O
[A] 1 to 5 µM

* * *

Recorded pIC50 values for a group of compounds are listed next.
target: ALDH1a3 (Homo sapiens, UniProt P47895); assay: Aldh1a3 enzyme inhibition assay, recombinant hALDH1a3; settings: resorufin fluorescence, 20° C.
Sequence (P47895 whole entry): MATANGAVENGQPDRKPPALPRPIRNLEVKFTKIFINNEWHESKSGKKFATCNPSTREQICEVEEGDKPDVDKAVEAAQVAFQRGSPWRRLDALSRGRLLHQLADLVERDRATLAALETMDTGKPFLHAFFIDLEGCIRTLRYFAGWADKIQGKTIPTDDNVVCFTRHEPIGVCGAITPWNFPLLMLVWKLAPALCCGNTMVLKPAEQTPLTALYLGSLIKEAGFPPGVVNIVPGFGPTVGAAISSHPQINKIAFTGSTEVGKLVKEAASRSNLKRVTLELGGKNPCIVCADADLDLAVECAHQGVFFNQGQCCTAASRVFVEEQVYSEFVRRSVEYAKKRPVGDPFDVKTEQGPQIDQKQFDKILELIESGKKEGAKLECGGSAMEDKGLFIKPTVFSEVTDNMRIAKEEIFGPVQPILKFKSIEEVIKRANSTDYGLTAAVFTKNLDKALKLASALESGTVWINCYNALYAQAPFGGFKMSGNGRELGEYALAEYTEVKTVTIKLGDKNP
pIC50: −log10 of the molar value.

Examples from the recorded data:
compound	target or test system	property name	test value
Cc1ccc(C)c(CNc2ccc3c(c2)CCC(=O)N3)c1	ALDH1a3 (Homo sapiens, UniProt P47895)	pIC50	5.30 to 6.00
COC(=O)c1ccc2ncc(Nc3ccc4c(c3)CC(C)(C)C(=O)N4)nc2c1	ALDH1a3 (Homo sapiens, UniProt P47895)	pIC50	< 5.30
CCc1cnccc1C(=O)Nc1ccc2c(c1)CC(C)C(=O)N2 (stereo not shown)	ALDH1a3 (Homo sapiens, UniProt P47895)	pIC50	6.60 to 7.00
O=C1CCc2cc(NCc3ccccc3)ccc2N1	ALDH1a3 (Homo sapiens, UniProt P47895)	pIC50	< 5.30
O=C1CCc2cc(NCc3cc[nH]c3)c(F)cc2N1	ALDH1a3 (Homo sapiens, UniProt P47895)	pIC50	< 5.30

[Q] Specify reported pIC50 for the compound shown: CCc1c[nH]c(=O)cc1C(=O)Nc1ccc2c(c1)CCC(=O)N2
[A] < 5.30

[Q] Annotate the compound CCc1cccnc1C(=O)Nc1cc2c(cc1Cl)NC(=O)CC2 with its measured pIC50.
[A] 6.00 to 6.60
